Where do these numbers come from? They come from the supplement of paper PMC8728848.

Experimental System: Fuc(a1-2)[GalNAc(a1-3)]Gal(b1-4)Glc
Method Description: glycan array binding signal (z-score within array); higher = stronger binding
Reported Conditions: glycan notation: IUPAC condensed, linker removed
Many of the other results were omitted from the sample, so the strongest signals are more common in it than they were.
Experimental Readout: glycan array binding signal (z-score)
The reply should be a number, written without any unit.

Example entries begin here.
Binder	glycan array binding signal (z-score)
Gal 8 (Homo sapiens), O00214 (protein) MMLSLNNLQNIIYNPVIPFVGTIPDQLDPGTLIVIRGHVPSDADRFQVDLQNGSSMKPRADVAFHFNPRFKRAGCIVCNTLINEKWGREEITYDTPFKREKSFEIVIMVKDKFQVAVNGKHTLLYGHRIGPEKIDTLGIYGKVNIHSIGFSFSSDLQSTQASSLELTEISRENVPKSGTPQLPSNRGGDISKIAPRTVYTKSKDSTVNHTLTCTKIPPMNYVSKRLPFAARLNTPMGPGRTVVVKGEVNANAKSFNVDLLAGKSKDIALHLNPRLNIKAFVRNSFLQESWGEEERNITSFPFSPGMYFEMIIYCDVREFKVAVNGVHSLEYKHRFKELSSIDTLEINGDIHLLEVRSW	4.22
Gal 3C (Homo sapiens), P17931 (protein) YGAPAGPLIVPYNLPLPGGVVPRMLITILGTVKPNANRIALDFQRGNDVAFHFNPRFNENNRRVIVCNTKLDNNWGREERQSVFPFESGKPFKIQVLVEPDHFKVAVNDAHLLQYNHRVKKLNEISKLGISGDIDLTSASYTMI	-0.117

*Q* Note down glycan array binding signal (z-score) recorded for LlpB (Pseudomonas fluorescens) (protein) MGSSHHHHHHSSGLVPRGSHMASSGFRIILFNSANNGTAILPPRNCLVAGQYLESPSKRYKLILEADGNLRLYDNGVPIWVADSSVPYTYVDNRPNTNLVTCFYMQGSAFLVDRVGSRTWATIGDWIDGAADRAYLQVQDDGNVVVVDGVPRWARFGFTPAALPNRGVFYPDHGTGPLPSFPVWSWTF
*A* -0.54
